Reported apparent KD of MS2 coat protein by item:
# Tested on: MS2 coat protein
# PROTOCOL_DESCRIPTION: apparent KD of MS2 coat protein, switch ON state; designed switch direction (-1 OFF switch, 1 ON switch): 1; higher = weaker reporter binding
# CONDITION_DETAILS: FMN input: 0 or 200 uM; Eterna round: R93 (includes R88 designs)
Reply with just the number (in nM).

| PRIMARY_SEQUENCE | TARGET_ENTITY | UNIT_OF_MEASUREMENT | VALUE |
| --- | --- | --- | --- |
| UCAAAACAUGAGGAUCACCCAUGUAGCCUAAAGCGAGGAUAUGGGUUUCUUUAAAGAGUACCAGAAGGCGCCAAAA [Enenala] | MS2 coat protein | nM | 27.9 |
| UGGAGACAUGAGGAUCACCCAUGUGAGAAGAGGCGAGGAUAUCGAAAGAAAGAAGAGAAACGAGAAGGCGCGAGCA [salish99-SS1-040] | MS2 coat protein | nM | 25.9 |
| AUGAAGGAGAGAGAGGAUAUCCAAAGGGAAACAUGAGGAUCACCCAUGUAGAAGGUAGGAAAUUGGGAGAAGGCUCAAGAGAGAG [salish99-ss2-111] | MS2 coat protein | nM | 25.4 |
| AACUAACAUGAGGAUCACCCAUGUAUUCAAACAUGAGGAUAUAUAACACAUCAUCGACGGAUAGAAGGCAUAAAUA [JR_SS001_Sub1206] | MS2 coat protein | nM | 92 |
| AAAGACACAGUGCAGGAUAUAGUAAUAGUCACAUGAGGAUCACCCAUGUUCUUUUAUAAGAACGAUUAGAAGGGCGGUGAAAAAA [SameState2 Malc#11] | MS2 coat protein | nM | 161 |

As a next step, examine the sequence that follows.
Record lookup: for MS2 coat protein, what apparent KD of MS2 coat protein belongs to GAAAAACAUGAGGAUCACCCAUGUAAAAAUAUGGGAGGAUAUACAAAGACGAAAGUCAAAGUAGAAGGCCUAAAAG [77%, Mat - Mod of Eli, 3] ?
24.4

###

# System: MS2 coat protein
# PROTOCOL_DESCRIPTION: apparent KD of MS2 coat protein; designed switch direction (-1 OFF switch, 1 ON switch): -1; higher = weaker reporter binding
# CONDITION_DETAILS: input ligand: none
Short version: apparent KD of MS2 coat protein at least 40 nM is Condition met, less is Condition not met.

Example cases with answers are listed next.
| PRIMARY_SEQUENCE | CAT |
| --- | --- |
| CUGUGCACGCUGCGGUCCUACAUGAGGAUCACCCAUGUGGUCUGGUGGCGUGGGUCACCGGACUUGGCUCGUCUUGG [salish99_S_TOV1_R5_063] (Eterna round: R97, puzzle: Sensor, turn-off variant 1) | Condition not met |
| ACGGGUAAGUAAGGAUAUCCAACAGGCUGAUUUCAGUCUGAACAUGAGGAUCACCCAUGUGGGUGGGAGAAGGUACUCUCCCGC [Atbienarza] (Eterna round: R96, puzzle: Exclusion NG 2) | Condition met |
| AGGCGGAAAGUAAGGAUAUCUUGACCAAAGGGUUGAGAGAAGGUACAUGAGGAUCACCCAUGUGUUUACCGCCA [Shrinking Claw (Vienna2)] (Eterna round: R97, puzzle: Brourd's mod of Exclusion 4) | Condition not met |
| AAAUAACGAGGAUAUAGGGUCCGGAACAUGAGGAUCACCCAUGUAUUGGAAACAACGUGGUUAGAAGGCGUUGCCC [EX5 A.15] (Eterna round: R97, puzzle: Exclusion 5) | Condition not met |

Now look at this one.
Does apparent KD of MS2 coat protein meet or surpass 40 nM for AUGUUACUCUGAGGAUAUUGUUUAUUCUUCUCACAUGAGGAUCACCCAUGUUUCCAUGUUAACCGCAAGAAGGCAGUUUUGUUU [JR_ExcNG2_Sub029] (Eterna round: R96, puzzle: Exclusion NG 2) ?
Condition not met

Hello, the source for this data is the supplement of paper PMC9170038, in case you need it.
